target: UniProt:P61626
Sequence (P61626 19-148): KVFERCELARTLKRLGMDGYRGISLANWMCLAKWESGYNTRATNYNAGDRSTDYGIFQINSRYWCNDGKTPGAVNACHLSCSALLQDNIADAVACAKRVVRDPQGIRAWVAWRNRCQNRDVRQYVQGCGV
MEASUREMENT LABEL: pKd
Hey, just a heads up that pKd is the negative log base 10 of the concentration in molar.

Q: Recall the recorded pKd for Cn1c(=O)c2c(ncn2CC2OCCO2)n(C)c1=O [doxofylline] with UniProt:P61626 and state it.
Result: 5.29

// data source = paper PMC10146846
